IC50, inhibition of the increase of cytosolic calcium values for the compounds below.
# SYSTEM: gastrin receptors or type-B cholecystokinin (CCK-B) receptors (Oryctolagus cuniculus, UniProt P46627)
# Construct: Rabbit gastric mucous-membrane cells were prepared by conventional techniques; endogenous in cells; host or cells: freshly isolated rabbit gastric mucosal cells, enriched by elutriation to about 70% parietal cells
# Sequence (P46627 1-452): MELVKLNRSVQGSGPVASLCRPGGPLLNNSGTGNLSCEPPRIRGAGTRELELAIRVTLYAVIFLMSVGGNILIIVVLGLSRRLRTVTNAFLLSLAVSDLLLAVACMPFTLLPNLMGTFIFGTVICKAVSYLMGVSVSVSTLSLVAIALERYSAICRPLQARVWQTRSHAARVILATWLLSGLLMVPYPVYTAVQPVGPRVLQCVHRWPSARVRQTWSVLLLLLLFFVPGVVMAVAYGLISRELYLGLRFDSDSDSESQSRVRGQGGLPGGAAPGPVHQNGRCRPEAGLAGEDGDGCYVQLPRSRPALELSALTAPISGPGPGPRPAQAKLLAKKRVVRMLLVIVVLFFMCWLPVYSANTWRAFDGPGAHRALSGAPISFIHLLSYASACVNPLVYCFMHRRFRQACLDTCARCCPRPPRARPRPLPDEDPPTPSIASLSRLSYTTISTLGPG
# EXPERIMENT_NOTES: Inhibition of the gastrin-induced increase of cytosolic calcium in rabbit gastric mucous-membrane cells (Fura 2)
# Type: cell-based
# CONDITION: rabbit gastric mucous cells enriched in parietal cells, gastrin 5×10^-8
MEASURE_NAME: IC50, inhibition of the increase of cytosolic calcium (nM)

COMPOUND	NUMERIC_READOUT
O=C(CC[C@@H](NC(=O)c1cc(Cl)cc(Cl)c1)C(=O)N1CCC2(CCCC2)CC1)N[C@H](Cc1ccccc1)C(=O)O [Compound 9]	50
O=C(CC[C@@H](NC(=O)c1cc(Cl)cc(Cl)c1)C(=O)N1CCC2(CCCC2)CC1)NC(Cc1ccccc1)C(=O)O (stereo partly drawn) [Compound 8]	60
CC1(C)CCC(NC(=O)[C@@H](CCC(=O)O)NC(=O)CC[C@@H](NC(=O)c2cc(Cl)cc(Cl)c2)C(=O)N2CCC3(CCCC3)CC2)CC1 [Compound 35]	120

----------
# SYSTEM: gastrin receptors or type-B cholecystokinin (CCK-B) receptors (Oryctolagus cuniculus, UniProt P46627)
# Construct: Rabbit gastric mucous-membrane cells were prepared by conventional techniques; endogenous in cells; host or cells: freshly isolated rabbit gastric mucosal cells, enriched by elutriation to about 70% parietal cells
# EXPERIMENT_NOTES: Inhibition of the gastrin-induced increase of cytosolic calcium in rabbit gastric mucous-membrane cells (Fura 2)
# Assay type: cell-based
# CONDITION: rabbit gastric mucous cells enriched in parietal cells, gastrin 5×10^-8
MEASURE_NAME: IC50, inhibition of the increase of cytosolic calcium

COMPOUND_STRUCTURE	RESULT
O=C(O)C[C@H](Cc1ccccc1)NC(=O)CC[C@@H](NC(=O)c1cc(Cl)cc(Cl)c1)C(=O)N1CCC2(CCCC2)CC1	0.02 µmol/L
O=C(CC[C@@H](NC(=O)c1cc(Cl)cc(Cl)c1)C(=O)N1CCC2(CCCC2)CC1)Nc1ccccc1C(=O)O	0.03 µmol/L
CN(C(=O)CC[C@@H](NC(=O)c1cc(Cl)cc(Cl)c1)C(=O)N1CCC2(CCCC2)CC1)[C@H](Cc1ccccc1)C(=O)O	0.06 µmol/L
O=C(O)C[C@@H](Cc1ccccc1)NC(=O)CC[C@@H](NC(=O)c1cc(Cl)cc(Cl)c1)C(=O)N1CCC2(CCCC2)CC1	0.03 µmol/L
CN(Cc1ccccc1)C(=O)[C@@H](CCC(=O)O)NC(=O)CC[C@@H](NC(=O)c1cc(Cl)cc(Cl)c1)C(=O)N1CCC2(CCCC2)CC1	0.03 µmol/L
O=C(CC[C@@H](NC(=O)c1cc(Cl)cc(Cl)c1)C(=O)N1CCC2(CCCC2)CC1)N[C@H](Cc1ccccn1)C(=O)O	0.23 µmol/L

----------
# SYSTEM: gastrin receptors or type-B cholecystokinin (CCK-B) receptors (Oryctolagus cuniculus, UniProt P46627)
# Construct: Rabbit gastric mucous-membrane cells were prepared by conventional techniques; endogenous in cells; host or cells: freshly isolated rabbit gastric mucosal cells, enriched by elutriation to about 70% parietal cells
# Sequence (P46627 1-452): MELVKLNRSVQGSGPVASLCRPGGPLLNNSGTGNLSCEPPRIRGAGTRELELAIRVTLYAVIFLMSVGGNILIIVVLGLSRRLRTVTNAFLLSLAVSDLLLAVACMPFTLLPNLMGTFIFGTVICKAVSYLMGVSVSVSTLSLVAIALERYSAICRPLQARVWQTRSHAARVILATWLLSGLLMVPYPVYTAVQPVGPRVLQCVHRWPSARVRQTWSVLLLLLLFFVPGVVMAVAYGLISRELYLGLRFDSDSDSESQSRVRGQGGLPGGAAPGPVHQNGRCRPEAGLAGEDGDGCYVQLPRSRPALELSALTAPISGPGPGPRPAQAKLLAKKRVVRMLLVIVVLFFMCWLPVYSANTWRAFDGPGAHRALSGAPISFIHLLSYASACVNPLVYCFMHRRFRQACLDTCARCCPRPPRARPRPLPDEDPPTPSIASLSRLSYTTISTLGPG
# EXPERIMENT_NOTES: Inhibition of the gastrin-induced increase of cytosolic calcium in rabbit gastric mucous-membrane cells (Fura 2)
# Format: cell-based
# CONDITION: rabbit gastric mucous cells enriched in parietal cells, gastrin 5×10^-8
# if measured IC50, inhibition of the increase of cytosolic calcium < 50 nM: Yes  # else: No

COMPOUND	CATEGORY_LABEL
O=C(CC[C@@H](NC(=O)c1cc(Cl)cc(Cl)c1)C(=O)N1CCC2(CCCC2)CC1)N[C@H](Cc1c[nH]c2ccccc12)C(=O)O [Compound 21]	Yes
Cc1cc(C(=O)O)ccc1NC(=O)CC[C@@H](NC(=O)c1cc(Cl)cc(Cl)c1)C(=O)N1CCC2(CCCC2)CC1 [Compound 52]	No
O=C(CC[C@@H](NC(=O)c1cc(Cl)cc(Cl)c1)C(=O)N1CCC2(CCCC2)CC1)N[C@@H](Cc1c[nH]c2ccccc12)C(=O)O [Compound 20]	Yes
O=C(CC[C@@H](NC(=O)c1cc(Cl)cc(Cl)c1)C(=O)N1CCC2(CCCC2)CC1)N[C@H](COCc1ccccc1)C(=O)O [Compound 23]	No
O=C(CC[C@@H](NC(=O)c1cc(Cl)cc(Cl)c1)C(=O)N1CCC2(CCCC2)CC1)NC(Cc1ccc(O)cc1)C(=O)O (some centres unmarked) [Compound 18]	No
CN(CC(=O)O)C(=O)CC[C@@H](NC(=O)c1cc(Cl)cc(Cl)c1)C(=O)N1CCC2(CCCC2)CC1 [Compound 2]	No
O=C(CC[C@@H](NC(=O)c1cc(Cl)cc(Cl)c1)C(=O)N1CCC2(CCCC2)CC1)N[C@H](CC1CCCCC1)C(=O)O [Compound 28]	No
O=C(CC[C@@H](NC(=O)c1cc(Cl)cc(Cl)c1)C(=O)N1CCC2(CCCC2)CC1)N[C@H](Cc1cccc2ccccc12)C(=O)O [Compound 25]	Yes

----------
# SYSTEM: CCK-A (Cavia porcellus, UniProt Q63931)
# Construct: A longitudinal strip of guinea-pig gall-bladder was put in a bath for isolated organs; from tissue; host or cells: guinea-pig gall bladder longitudinal strip
# Sequence (Q63931 whole entry): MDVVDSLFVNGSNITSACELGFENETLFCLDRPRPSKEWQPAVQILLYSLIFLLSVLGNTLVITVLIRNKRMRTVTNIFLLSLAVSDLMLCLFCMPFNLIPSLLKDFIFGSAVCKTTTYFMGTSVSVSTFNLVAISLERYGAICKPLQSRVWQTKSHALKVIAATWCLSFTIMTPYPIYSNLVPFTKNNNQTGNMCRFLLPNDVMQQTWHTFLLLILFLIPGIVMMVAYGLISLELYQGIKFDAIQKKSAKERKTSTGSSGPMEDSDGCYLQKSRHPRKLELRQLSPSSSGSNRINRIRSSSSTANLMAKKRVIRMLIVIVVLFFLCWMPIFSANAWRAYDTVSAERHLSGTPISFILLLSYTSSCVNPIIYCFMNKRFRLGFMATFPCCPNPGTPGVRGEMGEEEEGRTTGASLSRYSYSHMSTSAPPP
# EXPERIMENT_NOTES: Anti-CCK-A activity on guinea-pig gall bladder stimulated in vitro by CCK-8
# CONDITION: gall bladder IC50 over gastric mucous cells IC50

MOLECULE	Ratio I/II (CCK-A IC50 / CCK-B IC50)
O=C(CC[C@@H](NC(=O)c1cc(Cl)cc(Cl)c1)C(=O)N1CCC2(CCCC2)CC1)Nc1ccccc1C(=O)O [Compound 50]	160.0
O=C(O)CC[C@@H](NC(=O)c1cc(Cl)cc(Cl)c1)C(=O)N1CCC2(CCCC2)CC1 [CR 2194, reference compound]	35.5
O=C(CC[C@@H](NC(=O)c1cc(Cl)cc(Cl)c1)C(=O)N1CCC2(CCCC2)CC1)N[C@H](Cc1c[nH]c2ccccc12)C(=O)O [Compound 21]	940

----------
# SYSTEM: central CCK-B receptor (Cavia porcellus)
# Construct: Cerebral cortices of male white guinea-pigs were thus used; from tissue; host or cells: cerebral cortex membranes of male white guinea-pigs
# Sequence (H0VZC5 1-426): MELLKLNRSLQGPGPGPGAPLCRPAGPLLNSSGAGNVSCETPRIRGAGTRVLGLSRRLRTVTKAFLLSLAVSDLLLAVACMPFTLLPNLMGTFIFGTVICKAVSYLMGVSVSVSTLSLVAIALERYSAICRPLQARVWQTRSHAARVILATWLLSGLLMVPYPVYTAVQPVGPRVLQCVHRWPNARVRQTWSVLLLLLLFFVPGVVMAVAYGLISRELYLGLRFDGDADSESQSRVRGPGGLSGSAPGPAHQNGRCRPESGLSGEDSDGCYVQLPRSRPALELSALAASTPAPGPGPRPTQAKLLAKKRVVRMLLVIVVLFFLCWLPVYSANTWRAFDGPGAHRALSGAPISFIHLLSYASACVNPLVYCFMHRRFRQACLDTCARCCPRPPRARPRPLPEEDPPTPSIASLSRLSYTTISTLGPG
# EXPERIMENT_NOTES: Inhibition of the binding of [3-H][N-methyl-N-leucine]CCK-8 to guinea-pig cortical membranes
# CONDITION: binding, guinea-pig cortex
# Procedure: The ability of the compounds of the invention to interact with the central CCK-B receptor was evaluated with the use of non-sulphated [3-H] […] 225 (3) (1990), 1278-1286]. Cerebral cortices of male white guinea-pigs were thus used, according to the method mentioned above, so as to obtain a membrane content corresponding to about 300 mcg of proteins/ml. […] After the supernatant had been discarded, the radioactivity associated with the pellet was determined with a liquid scintillator. […]
MEASURE_NAME: times more active than the corresponding diastereoisomer at the carbon atom (**)

COMPOUND_STRUCTURE	SYSTEM	RESULT
O=C(CC[C@@H](NC(=O)c1cc(Cl)cc(Cl)c1)C(=O)N1CCC2(CCCC2)CC1)N[C@H](Cc1c[nH]c2ccccc12)C(=O)O	central CCK-B receptor (Cavia porcellus)	about 5 times
O=C(O)C[C@@H](Cc1ccccc1)NC(=O)CC[C@@H](NC(=O)c1cc(Cl)cc(Cl)c1)C(=O)N1CCC2(CCCC2)CC1	central CCK-B receptor (Cavia porcellus)	1.5 times
O=C(CC[C@@H](NC(=O)c1cc(Cl)cc(Cl)c1)C(=O)N1CCC2(CCCC2)CC1)N[C@H](Cc1ccccc1)C(=O)O	central CCK-B receptor (Cavia porcellus)	about 5 times
